Values were extracted from patent US11912693B2.

Parameter: Emax. Scope: all listed entries.
# assayed.target: human sphingosine-1-phosphate receptor 1 (S1P1) (Homo sapiens (Human), UniProt P21453)
# experiment: Inhibition of cAMP production (HTRF cAMP HiRange), S1P1 CHO-K1 cells
# Assay type: cell-based
# test.parameters: CHO-K1; efficacy (SPAN) normalized to fingolimod; read-out: hS1P1 cAMP SPAN
# Sequence (P21453 whole entry, looked up): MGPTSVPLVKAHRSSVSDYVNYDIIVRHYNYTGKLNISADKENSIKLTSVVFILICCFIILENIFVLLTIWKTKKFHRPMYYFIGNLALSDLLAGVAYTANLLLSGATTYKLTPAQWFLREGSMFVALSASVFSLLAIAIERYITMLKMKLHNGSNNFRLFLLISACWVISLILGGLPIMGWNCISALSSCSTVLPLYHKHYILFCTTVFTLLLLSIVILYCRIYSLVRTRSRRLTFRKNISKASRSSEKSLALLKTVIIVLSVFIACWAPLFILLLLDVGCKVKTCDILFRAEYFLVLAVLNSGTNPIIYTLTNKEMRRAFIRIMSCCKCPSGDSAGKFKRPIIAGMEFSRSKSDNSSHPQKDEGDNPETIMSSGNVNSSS
quantity.measured: Emax

INSERT INTO measurements (molecule, observed) VALUES
  ('Cc1cccc2nc(-c3ccc4c(c3)nnn4C(C)C)oc12 [Compound 421]', '> 75%'),
  ('O=C1CC2(CCOCC2)Oc2ccc(-c3nc(-c4cccnc4)no3)cc21 [Compound 214]', '< 75%'),
  ('CCC1(CC)CC(=O)c2cc(-c3nc(-c4ccsc4)no3)ccc2N1 [Compound 554]', '> 75%'),
  ('COc1ccc2nc(-c3ccc4c(c3)nnn4CC(C)C)oc2c1 [Compound 452]', '> 75%'),
  ('CC(C)(O)Cn1nnc2cc(-c3nc(-c4ccncc4C(F)(F)F)no3)ccc21 [Compound 460]', '> 75%'),
  ('CC(C)n1nnc2cc(-c3nc(-c4ccc(OCc5ccccc5)cc4)no3)ccc21 [Compound 53]', '< 75%'),
  ('O=C(O)CCn1nnc2cc(-c3noc(-c4ccccc4Br)n3)ccc21 [Compound 134]', '< 75%'),
  ('Cc1ccccc1-c1noc(-c2ccc3c(c2)nnn3CC(F)F)n1 [Compound 182]', '> 75%'),
  ('CCC1(CC)CC(=O)c2cc(-c3nc(-c4ccccn4)no3)ccc2O1 [Compound 111]', '> 75%');

---

Parameter: Emax. Scope: all listed entries.
# assayed.target: human sphingosine-1-phosphate receptor 1 (S1P1) (Homo sapiens (Human), UniProt P21453)
# experiment: β-Arrestin2 recruitment assay (PathHunter), S1P1 CHO-K1 cells
# Assay type: cell-based
# test.parameters: CHO-K1; efficacy (SPAN) normalized to fingolimod; read-out: hS1P1 B-arrestin2 SPAN
# Sequence (P21453 whole entry, looked up): as above
# Sequence (P32121 whole entry partner, looked up): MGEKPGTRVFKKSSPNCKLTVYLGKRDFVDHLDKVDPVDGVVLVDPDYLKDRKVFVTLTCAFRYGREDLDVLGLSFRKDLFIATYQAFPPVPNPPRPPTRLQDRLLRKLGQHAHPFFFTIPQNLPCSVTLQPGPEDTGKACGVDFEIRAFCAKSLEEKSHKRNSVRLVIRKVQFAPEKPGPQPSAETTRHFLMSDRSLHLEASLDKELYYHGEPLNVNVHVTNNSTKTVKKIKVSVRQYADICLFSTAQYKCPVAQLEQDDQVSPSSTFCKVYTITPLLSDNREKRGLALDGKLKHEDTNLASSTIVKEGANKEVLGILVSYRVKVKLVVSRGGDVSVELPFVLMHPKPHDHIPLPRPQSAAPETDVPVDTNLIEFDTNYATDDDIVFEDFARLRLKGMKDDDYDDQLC
quantity.measured: Emax

INSERT INTO assay_data (molecule, observed) VALUES
  ('CC(C)n1ncc2cc(-c3nc(-c4ccccc4O)no3)ccc21 [Compound 333]', '> 75%'),
  ('CC(C)n1nnc2cc(C(=O)Nc3noc4ccccc34)ccc21 [Compound 181]', '> 75%'),
  ('COc1ccccc1-c1nnc(-c2ccc3c(c2)oc(=O)n3C)o1 [Compound 350]', '< 75%'),
  ('CC(C)n1nnc2cc(-c3nc4c(o3)CCCc3ccccc3-4)ccc21 [Compound 434]', '> 75%'),
  ('CCC1(CC)CC(=O)c2cc(-c3nc(-c4ccncc4C)no3)ccc2O1 [Compound 31]', '> 75%');

---

# assayed.target: human sphingosine-1-phosphate receptor 1 (S1P1) (Homo sapiens (Human), UniProt P21453)
# experiment: β-Arrestin2 recruitment assay (PathHunter), S1P1 CHO-K1 cells
# Format: cell-based
# test.parameters: β-arrestin2 recruitment, S1P1 CHO-K1 cells; read-out: hS1P1 B-arrestin2 pEC50 (converted)
quantity.measured: EC50

INSERT INTO measurements (compound, quantity_measured, observed) VALUES
  ('CC(C)n1nnc2cc(-c3nc(-c4cn[nH]c4)no3)ccc21 [Compound 646]', 'EC50', '> 10 µM'),
  ('CC(C)n1nnc2cc(-c3nc(-c4cccnc4Cl)no3)ccc21 [Compound 499]', 'EC50', '< 10 µM'),
  ('Cc1cc(-c2noc(-c3ccc4c(c3)nnn4CC(C)(C)O)n2)c(C)o1 [Compound 493]', 'EC50', '> 10 µM');
